Tested on: HEK293
assay-comment: Cellular uptake in HEK293 cells assessed as labeled cells at 1 uM after 24 hrs by flow cytometry
Type: ADME, cell-based
conditions-used: human, hek293, 24 h
measured-metric: Drug uptake (%)
Report the value in % with no unit label.

Drug uptake in this record for CN(C)CCCNC(=O)c1nc(NC(=O)c2nc(NC(=O)c3nc(NC(=O)CCNc4nc(NC(=O)c5nc(NC(=O)c6nc(NC(=O)CCNc7nc(NC(=O)c8nc(NC(=O)c9nc(NC(=O)CCNc%10nc(NC(=O)c%11nc(NC(=O)c%12nc(NC(=O)CCNC(=S)Nc%13ccc(-c%14c%15ccc(=O)cc-%15oc%15cc(O)ccc%14%15)c(C(=O)O)c%13)cn%12C)cn%11C)cn%10C)cn9C)cn8C)cn7C)cn6C)cn5C)cn4C)cn3C)cn2C)cn1C : 1.1

* * *

Below: a set of entries, each annotated with reported Drug uptake.
System: HEK293
assay-comment: Cellular uptake in HEK293 cells assessed as labeled cells at 1 uM after 24 hrs by flow cytometry
Assay type: ADME, cell-based
conditions-used: human, hek293, 24 h

Study these solved cases before continuing.
mol-smiles	test-system	Drug uptake
CN(C)CCCNC(=O)c1nc(NC(=O)c2nc(NC(=O)c3nc(NC(=O)CCNC(=S)Nc4ccc(-c5c6ccc(=O)cc-6oc6cc(O)ccc56)c(C(=O)O)c4)cn3C)cn2C)cn1C	HEK293	53%
CN(C)CCCNC(=O)c1cc(NC(=O)c2cc(NC(=O)c3cc(NC(=O)CCNc4cc(NC(=O)c5cc(NC(=O)c6cc(NC(=O)CCNc7cc(NC(=O)c8cc(NC(=O)c9cc(NC(=O)CCNc%10cc(NC(=O)c%11cc(NC(=O)c%12cc(NC(=O)CCNc%13cc(NC(=O)c%14cc(NC(=O)c%15cc(NC(=O)CCNC(=S)Nc%16ccc(-c%17c%18ccc(=O)cc-%18oc%18cc(O)ccc%17%18)c(C(=O)O)c%16)cn%15C)cn%14C)cn%13C)cn%12C)cn%11C)cn%10C)cn9C)cn8C)cn7C)cn6C)cn5C)cn4C)cn3C)cn2C)cn1C	HEK293	> 82%

Known value: HEK293 Drug uptake of the molecule CN(C)CCCNC(=O)c1cc(NC(=O)c2cc(NC(=O)c3cc(NC(=O)CCNc4cc(NC(=O)c5cc(NC(=O)c6cc(NC(=O)CCNC(=S)Nc7ccc(-c8c9ccc(=O)cc-9oc9cc(O)ccc89)c(C(=O)O)c7)cn6C)cn5C)cn4C)cn3C)cn2C)cn1C equals > 82%
